# assay comment: Therapeutic index, ratio of CC50 for HEK293T cells to IC50 for HIV-1 sub-type-C MJ4 infected in HEK293T cells
# Format: toxicity, cell-based
# condition: human, read-out: Ratio CC50/IC50
measured property: selectivity ratio
Write no unit; give the number alone.

INPUT: Sample CC(C)[Si](C#CCCCCCCCCCCCSCCCOP(=O)(O)CO[C@H](C)Cn1cnc2c(N)ncnc21)(C(C)C)C(C)C — what was its selectivity ratio?
OUTPUT: 224

INPUT: // lookup selectivity ratio for CCCCCCCCCCCCCCCCCSCCOP(=O)(O)CO[C@H](C)Cn1cnc2c(N)ncnc21
OUTPUT: 7150

INPUT: Param item = CCCCCCCCCCCCCCCCOCCCOP(=O)(O)CO[C@H](C)Cn1cnc2c(N)ncnc21 ; retrieve measured selectivity ratio.
OUTPUT: 5420

INPUT: Returns the measured selectivity ratio for the input molecule. Input: CCCCCCCCCCCCCCCCSCCCOP(=O)(O)CO[C@H](C)Cn1cnc2c(N)ncnc21.N
OUTPUT: 4980

###

# assay comment: Therapeutic index, ratio of CC50 for HEK293T cells to IC50 for HIV-1 sub-type-C MJ4 infected in HEK293T cells
# Format: toxicity, cell-based
# condition: human, read-out: Ratio CC50/IC50
Please go through the items and note down their selectivity ratio.

INPUT: I'd like to know its selectivity ratio. The molecule in question is C[C@H](Cn1cnc2c(N)ncnc21)OCP(=O)(O)OCCCSCCCCCCCCCCCCC#C[Si](C)(C)C
OUTPUT: > 4170

INPUT: What does the record list as selectivity ratio for CCCCCCCSCCCCCCCCCCCCOP(=O)(O)CO[C@H](C)Cn1cnc2c(N)ncnc21 ?
OUTPUT: > 296

INPUT: Given the molecule C[C@H](Cn1cnc2c(N)ncnc21)OCP(=O)(O)OCCCSCCCCCCCCCCCSc1ccccc1 , what is its reported selectivity ratio?
OUTPUT: > 594

INPUT: I am curious: what selectivity ratio value has been reported for CCCCCCCCCCCCCSCCCCCCOP(=O)(O)CO[C@H](C)Cn1cnc2c(N)ncnc21 ?
OUTPUT: > 1370

INPUT: Field request: selectivity ratio | item: COC(=O)CCCCCCCCCCCCCCCSCCCOP(=O)(O)CO[C@H](C)Cn1cnc2c(N)ncnc21
OUTPUT: > 70

INPUT: Entry C[C@H](Cn1cnc2c(N)ncnc21)OCP(=O)(O)OCCCSCCCCCCCCCCCOc1ccc(F)cc1.N : reported selectivity ratio = ?
OUTPUT: 6250

INPUT: State the recorded selectivity ratio for this entry: C#CCCCCCCCCCCCCCCSCCCOP(=O)(O)CO[C@H](C)Cn1cnc2c(N)ncnc21
OUTPUT: > 3570

INPUT: Would you mind telling me what selectivity ratio value was observed for C[C@H](Cn1cnc2c(N)ncnc21)OCP(=O)(O)OCCCSCCCCCCCCCCC#Cc1ccc(F)cc1 ?
OUTPUT: > 10000

INPUT: # lookup: selectivity ratio of C[C@H](Cn1cnc2c(N)ncnc21)OCP(=O)(O)OCCCSCCCCCCCCCCCCc1ccc(F)cc1.N
OUTPUT: > 11100

INPUT: selectivity ratio lookup needed for C[C@H](Cn1cnc2c(N)ncnc21)OCP(=O)(O)OCCCSCCCCCCCCCCCOc1ccccc1.N , thanks.
OUTPUT: > 8060

INPUT: selectivity ratio lookup needed for C[C@H](Cn1cnc2c(N)ncnc21)OCP(=O)(O)OCCCSCCCCCCCCCCCOC1CCCCC1 , thanks.
OUTPUT: > 542

INPUT: Record request: selectivity ratio value, item C[C@H](Cn1cnc2c(N)ncnc21)OCP(=O)(O)OCCCSCCCCCCCCCCC#CC1CCCCC1
OUTPUT: > 7580

INPUT: Reported selectivity ratio for C[C@H](Cn1cnc2c(N)ncnc21)OCP(=O)(O)OCCCSCCCCCCCCCCC#Cc1ccccc1 : what is it?
OUTPUT: > 12500

INPUT: What does the data say about its selectivity ratio? Entry: C[C@H](Cn1cnc2c(N)ncnc21)OCP(=O)(O)OCCCSCCCCCCCCCCCCC1CCCCC1.N
OUTPUT: > 2000

INPUT: What value of selectivity ratio has been reported for the following molecule? CCCCCCCCCCSCCCCCCCCCOP(=O)(O)CO[C@H](C)Cn1cnc2c(N)ncnc21
OUTPUT: > 1720

INPUT: # lookup: selectivity ratio of C[C@H](Cn1cnc2c(N)ncnc21)OCP(=O)(O)OCCCSCCCCCCCCCCCCCCC(C)(C)C
OUTPUT: 138
